FYI, the data here is from PubChem BioAssay (NCI).

For each entry below, report its growth value.
Test system: NCI-H322M lung
METHOD DESCRIPTION: NCI-60 one-dose screen, 48 h (100 = growth as untreated, 0 = no growth, -100 = all killed)
MEASUREMENT CONDITIONS: 10 µM unless noted
About 83,000 compounds went through this panel and 20% of them were active in at least one assay; those are over-represented in the sample as a whole.
Give bare numbers, in %.

Reference set (4 entries):
COc1cccc(C2=NN3C(C2)c2cc(Br)cc(OC)c2OC32CCN(Cc3ccccc3)CC2)c1 (centres undefined)	103
CCOc1ccc(-n2nc(C(=O)Nc3ccccc3)nc2-c2cc(OC)c(OC)c(OC)c2)cc1	67.6
CC1=CC(C)(C)Nc2ccc(Cc3ccc4c(c3)C(C)=CC(C)(C)N4)cc21	113
CC[C@@H]1O[C@H](O[C@@H](c2cnc[nH]2)[C@H](NC(=O)c2nc([C@H](CC(N)=O)NC[C@@H](N)C(N)=O)nc(N)c2C)C(=O)N[C@H](C)[C@H](O)[C@H](C)C(=O)N[C@@H](C(=O)NCCc2nc(-c3nc(C(=O)NCCCCN=C(N)N)cs3)cs2)[C@@H](C)O)[C@H](O[C@@H]2O[C@H](CO)[C@H](O)[C@H](OC(N)=O)[C@@H]2O)[C@H](C)[C@@H]1C	105

Hey, can you go through the list below and give me growth for every item?
1. CCCCN1CCCn2c1nc1c2c(=O)n(CCC)c(=O)n1CCC
2. CC(=O)O[C@H]1CC[C@]2(C)[C@H]3CC=C4[C@@H]5CC(C)(C)CC[C@]5(C(=O)NCCNCCN)CC[C@@]4(C)[C@]3(C)CC[C@H]2C1(C)C
3. CCC([N+](=O)[O-])S(=O)(=O)c1ccc(C)cc1 (centres undefined)
4. COc1ccc(/C=C2\Oc3cc(OCCCCN4CCCC4)ccc3C2=O)cc1
5. CCN1CCC2(CC1)NC(=O)c1c(c3ccc(Cl)c(Cl)c3n1C)C2C#N (centres undefined)

Outgoing:
1. 97.7
2. 67.3
3. 112
4. 98.6
5. 57
